The measured values listed here are drawn from ChEMBL document CHEMBL4257534.

Assay: Cytotoxicity against human HepG2 cells assessed as cell viability at 25 uM after 24 hrs by MTT assay relative to control
Format: cell-based
Settings: read-out: Activity
Hi! Just check whether viability at 24 h, 25 µM is below 80%. Below gives fulfilled, equal or above gives not fulfilled.

The examples below pair each entry with its known result.
- Compound: "COc1cc(C2=NN(C(=O)Oc3ccccc3)C(c3ccc(Cl)cc3)C2)ccc1O (stereo not given)"
  Label class: "fulfilled"
- Compound: "COc1cc(C2=NNC(c3ccc(Cl)cc3)C2)ccc1O (stereo not given)"
  Label class: "not fulfilled"

Exercise: Here's an entry: COc1cc(C2=NN(S(=O)(=O)c3ccc(C)cc3)C(c3ccc(Cl)cc3)C2)ccc1O (stereo not given) . Is its viability at 24 h, 25 µM below 80%?
Solution: fulfilled
